Numbers sourced from patent US20230293526A1.

# System: COLO205
# Assay details: Cell proliferation Ex.3
# Assay type: cell-based
# Measurement conditions: Homo sapiens, COLO 205; COLO205, 72 h
Value kind: IC50

Query string: Form field: reported IC50 of `C#C[C@]1(CO)O[C@@H](n2cc(F)c(N)nc2=O)C[C@@H]1O`
Result string: > 10 µM

###

# System: RAMOS
# Assay details: Cell proliferation Ex.3
# Format: cell-based
# Measurement conditions: Homo sapiens, 72 h
Value kind: pIC50
When answering, recall that pIC50 equals minus log10 of the concentration in mol/L, and write that number alone.

Query string: Form field: reported pIC50 of C#C[C@]1(CO)O[C@@H](n2cc(F)c(N)nc2=O)C[C@@H]1O [compound 9]
Result string: 5.39
